Target: ΔF508-CFTR (Homo sapiens, UniProt P13569, DEL508-508)
Construct: host or cells: CFBE41o-, doxycycline-inducible
Sequence (P13569 with tags, fused parts or gaps DEL508-508): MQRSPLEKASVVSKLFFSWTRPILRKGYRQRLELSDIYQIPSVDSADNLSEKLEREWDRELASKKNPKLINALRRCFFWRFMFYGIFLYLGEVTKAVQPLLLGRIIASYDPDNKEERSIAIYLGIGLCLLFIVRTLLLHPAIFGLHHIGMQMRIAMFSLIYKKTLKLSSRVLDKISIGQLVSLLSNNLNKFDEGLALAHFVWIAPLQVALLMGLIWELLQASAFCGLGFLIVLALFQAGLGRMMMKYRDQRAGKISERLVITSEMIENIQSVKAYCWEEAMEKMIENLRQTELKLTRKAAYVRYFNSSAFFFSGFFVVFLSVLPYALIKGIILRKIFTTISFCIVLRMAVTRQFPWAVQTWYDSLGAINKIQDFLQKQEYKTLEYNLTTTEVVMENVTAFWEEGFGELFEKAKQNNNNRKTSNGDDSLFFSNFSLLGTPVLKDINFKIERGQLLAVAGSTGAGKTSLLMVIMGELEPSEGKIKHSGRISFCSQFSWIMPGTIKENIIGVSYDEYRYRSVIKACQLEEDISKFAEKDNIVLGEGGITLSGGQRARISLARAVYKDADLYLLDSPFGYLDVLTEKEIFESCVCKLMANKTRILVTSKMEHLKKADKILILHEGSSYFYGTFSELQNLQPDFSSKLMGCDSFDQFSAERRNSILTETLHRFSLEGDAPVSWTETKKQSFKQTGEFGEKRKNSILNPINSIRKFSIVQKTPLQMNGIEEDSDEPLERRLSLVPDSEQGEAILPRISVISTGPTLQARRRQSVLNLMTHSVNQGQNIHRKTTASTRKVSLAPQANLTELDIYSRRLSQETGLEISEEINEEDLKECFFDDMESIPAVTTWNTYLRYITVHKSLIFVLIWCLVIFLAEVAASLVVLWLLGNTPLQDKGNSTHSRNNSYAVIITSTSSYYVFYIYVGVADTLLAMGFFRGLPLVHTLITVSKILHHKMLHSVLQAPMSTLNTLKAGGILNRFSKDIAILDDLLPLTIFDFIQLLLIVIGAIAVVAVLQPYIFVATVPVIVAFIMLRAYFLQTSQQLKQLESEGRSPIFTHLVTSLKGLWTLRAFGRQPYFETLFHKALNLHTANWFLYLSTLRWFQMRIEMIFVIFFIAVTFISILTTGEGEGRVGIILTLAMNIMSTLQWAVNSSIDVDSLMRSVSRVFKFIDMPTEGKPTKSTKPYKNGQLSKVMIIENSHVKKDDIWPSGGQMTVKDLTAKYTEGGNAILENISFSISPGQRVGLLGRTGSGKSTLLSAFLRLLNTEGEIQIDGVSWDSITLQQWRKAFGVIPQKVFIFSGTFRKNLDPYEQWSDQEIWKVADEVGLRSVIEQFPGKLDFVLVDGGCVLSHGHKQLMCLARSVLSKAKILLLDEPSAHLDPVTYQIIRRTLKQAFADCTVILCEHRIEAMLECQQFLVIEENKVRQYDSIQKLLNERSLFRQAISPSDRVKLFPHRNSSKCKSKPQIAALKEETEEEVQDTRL
Assay: CFTR cell surface levels using HRP-tagged ΔF508-CFTR expressing CFBE cells, in the presence of a co-corrector
Assay type: cell-based
Details: HRP-tagged ΔF508-CFTR CFBE cells, in the presence of 3 μM co-corrector; read-out: EC50
observed-property: log10 of EC50 (log10 of the value in nM)
Heads up, the numbers here are log10 of EC50 in nM units.

Consider the reported log10 of EC50 for these compounds:
For the compound COCCS(=O)(=O)NC(=O)c1cc(N2CCC(N3CCOCC3)CC2)c2c(C3CCC3)nn(-c3ccc(F)cc3)c2n1 , report log10 of EC50.
2.09

For the compound COC(=O)N1CC(c2nn(-c3cc(F)cc(F)c3)c3nc(C(=O)NS(C)(=O)=O)cc(-c4ccc(NC(C)=O)cc4)c23)C1 , report log10 of EC50.
3.52

For the compound COCC1CN(c2cc(C(=O)NS(C)(=O)=O)nc3c2c(C2CCC2)nn3-c2ccccc2)C1 , report log10 of EC50.
2.77

For the compound COc1ccc(-c2cc(C(=O)NS(C)(=O)=O)nc3c2c(C)nn3-c2cccc(C)c2)cc1 , report log10 of EC50.
2.85

For the compound COCC1CCN(c2cc(C(=O)NS(=O)(=O)N(C)C)nc3c2c(C2CCC2)nn3-c2ccnc(C3CCOCC3)c2)CC1 , report log10 of EC50.
1.80

---
For the compound Cc1nn(-c2cccc(F)c2)c2nc(C(=O)NS(C)(=O)=O)cc(-c3ccc(N4CCOCC4)cc3)c12 , report log10 of EC50.
2.38

For the compound Cc1nn(-c2ccccc2)c2nc(C(=O)NS(C)(=O)=O)cc(N3CCCCC3)c12 , report log10 of EC50.
3.17
